assayTarget: SFRP-1 (Homo sapiens);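 further: test compound competes with a fluorescent probe held by SFRP-1, seen as a drop in probe anisotropy after incubation in darkness, with anisotropy as function of rising compound dose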
Sequence (Q8N474 32-314): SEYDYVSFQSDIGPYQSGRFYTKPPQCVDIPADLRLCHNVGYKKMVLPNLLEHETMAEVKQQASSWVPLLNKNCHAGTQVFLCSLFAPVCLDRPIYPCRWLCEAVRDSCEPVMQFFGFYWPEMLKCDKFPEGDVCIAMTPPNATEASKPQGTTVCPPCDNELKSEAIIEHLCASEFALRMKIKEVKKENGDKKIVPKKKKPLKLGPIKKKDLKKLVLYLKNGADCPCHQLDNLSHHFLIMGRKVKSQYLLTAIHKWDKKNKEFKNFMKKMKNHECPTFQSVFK
reportedMetric: pIC50
Please keep in mind that pIC50 is minus log10 of the molar concentration; only the number is needed.

Answered cases to consult:
# compound, assayTarget, observedValue
records = [
    ("C[C@@H](NS(=O)(=O)c1cc(S(=O)(=O)c2ccccc2)ccc1Cl)[C@H](O)c1ccccc1 (relative stereo) [Example 676]", "SFRP-1 (Homo sapiens)", 5.05),
    ("Cc1nn(C)c(Cl)c1S(=O)(=O)c1ccc(C(C)C)c(S(=O)(=O)NCCc2ccccn2)c1 [Example 512]", "SFRP-1 (Homo sapiens)", 6.00),
    ("CC(C)c1ccc(S(=O)(=O)c2ccc(F)cc2)cc1S(=O)(=O)NCC(O)c1ccccn1 (stereo not drawn) [Example 727]", "SFRP-1 (Homo sapiens)", 5.00),
    ("O=C(c1cscn1)N1CCC(NS(=O)(=O)c2cc(S(=O)(=O)c3ccccc3)ccc2C(F)(F)F)CC1 [Example 1090]", "SFRP-1 (Homo sapiens)", 7.22),
    ("CCNC(=O)N1CCC(NS(=O)(=O)c2cc(S(=O)(=O)c3ccccc3)ccc2C)CC1 [Example 501]", "SFRP-1 (Homo sapiens)", 5.40),
    ("O=C(c1ccc(-c2ccccc2)nc1)N1CCC(NS(=O)(=O)c2cc(S(=O)(=O)c3ccccc3)ccc2C(F)(F)F)CC1 [Example 1024]", "SFRP-1 (Homo sapiens)", 6.70),
    ("CN(CCNS(=O)(=O)c1cc(S(=O)(=O)c2ccccc2)ccc1C(F)(F)F)CC(=O)O [Example 981]", "SFRP-1 (Homo sapiens)", 4.89),
    ("CCCc1ccc(S(=O)(=O)c2ccccc2)cc1S(=O)(=O)NCC1CCOCC1 [Example 552]", "SFRP-1 (Homo sapiens)", 5.92),
    ("CC(C)C(CO)NS(=O)(=O)c1cc(S(=O)(=O)c2ccccc2)ccc1C(F)(F)F (stereo not drawn) [Example 769]", "SFRP-1 (Homo sapiens)", 4.89),
    ("CN(CCNS(=O)(=O)c1cc(S(=O)(=O)c2ccccc2)ccc1C(F)(F)F)C(=O)c1cccnc1Cl [Example 851]", "SFRP-1 (Homo sapiens)", 6.40),
]

Ask: Any idea what pIC50 was measured for O=C(NCCNS(=O)(=O)c1cc(S(=O)(=O)c2ccccc2)ccc1C(F)(F)F)c1ccccc1 [Example 770] ?
Result: 5.57

Ask: Continue with CCc1ccc(S(=O)(=O)c2ccc(F)cc2)cc1S(=O)(=O)NC(C)C(O)c1ccccc1 (stereo not drawn) [Example 392]
Result: 5.40

Ask: Continue with Cc1ccc(S(=O)(=O)c2ccccc2)cc1S(=O)(=O)NC1CCN(C(=O)c2ccco2)CC1 [Example 449]
Result: 5.52

Ask: Continue with CCOC(=O)CCN(C)CCNS(=O)(=O)c1cc(S(=O)(=O)c2ccccc2)ccc1C(F)(F)F [Example 907]
Result: 6.05

Ask: Continue with CCCc1ccc(S(=O)(=O)c2ccccc2)cc1S(=O)(=O)NCCc1ccccc1 [Example 550]
Result: 5.89
